- experiment notes: NCI Yeast Anticancer Drug Screen. Data for the mlh1 rad18 strain (AID 175)
- test context: S. cerevisiae mlh1 rad18 strain growth inhibition; at 50.0 µM (retest, dose inferred, filed as 5.0)
- Protocol: Growth inhibition of yeast strains with defined genetic alterations is measured as a screen for potential anti-cancer activity. Selected strains with alterations in DNA damage repair or cell cycle control were exposed to compounds and growth inhibition was measured relative to vehicle treated controls. The strain used in this assay is mlh1 rad18
The panel holds about 79,000 compounds, 15% with a hit somewhere; the sample as a whole holds those more often. Active and inactive are the calls of the source. No stated cut-off is given here; in the data, active means growth inhibition above about 70%; inactive means the rest.
Pick one and only one: active, inactive

Tell me the recorded outcome of this test for Cc1ccc(S(=O)(=O)Nc2cc(S(=O)(=O)O)c(N)c3c2C(=O)c2ccccc2C3=O)cc1 . active

Tell me the recorded outcome of this test for O=C(O)C1(Cc2ccccc2)Cc2cc3c(cc2C1)CCC3 . inactive

Tell me the recorded outcome of this test for O=c1c(Cl)c(Cl)cnn1-c1ccccc1 . inactive

Tell me the recorded outcome of this test for COc1cc(O)c2c(c1)C(=O)c1cc3c(c(O)c1C2=O)C(OC1OC(C)C(OC)C(O)C1OC)C(OC)C(C)(O)C3=O (stereo not given) . active

Tell me the recorded outcome of this test for COc1ccc(Oc2ccccc2N)cc1 . active
